test: Cytotoxicity Test I: virus-uninfected MT-4 cells, MTT method; assay type: cell-based; details: human, MT-4 cells (virus-uninfected); virus-uninfected MT-4 cells, MTT method; read-out: CC50 (Test I), 50% survival concentration
Where a SMILES comes first, the peptide text is derived from it. Bridges are numbered along the chain shown (N, C = ends). [ ]: non-standard residue; d: D form. 2Nal = N[C@@H](Cc1ccc2ccccc2c1)C(=O)O; Cit = NC(=O)NCCC[C@H](N)C(=O)O
QUANTITY: CC50

Task: # lookup: CC50 of C[C@H]1NC(=O)[C@H](CCCCN)NC(=O)[C@H](CCCN=C(N)N)NC(=O)[C@H](Cc2ccc(O)cc2)NC(=O)[C@@H](NC(=O)[C@H](Cc2ccc3ccccc3c2)NC(=O)[C@H](CCCN=C(N)N)NC(=O)[C@@H](N)CCCN=C(N)N)CSSC[C@@H](C(=O)N[C@@H](CCCN=C(N)N)C(=O)O)NC(=O)[C@H](CCCNC(N)=O)NC(=O)[C@H](CCCN=C(N)N)NC(=O)[C@H](Cc2ccc(O)cc2)NC(=O)[C@@H]2CCCN2C1=O [TA14007] (H-RR[2Nal]CYRK[dA]PYR[Cit]CR-OH; disulfide 4-13)
Result: > 80 µM

====

test: Cytotoxicity Test I: virus-uninfected MT-4 cells, MTT method; format: cell-based; settings: human, MT-4 cells (virus-uninfected); virus-uninfected MT-4 cells, MTT method; read-out: CC50 (Test I), 50% survival concentration
Where a SMILES comes first, the peptide text is derived from it. Bridges are numbered along the chain shown (N, C = ends). [ ]: non-standard residue; d: D form. 2Nal = N[C@@H](Cc1ccc2ccccc2c1)C(=O)O; Cit = NC(=O)NCCC[C@H](N)C(=O)O
QUANTITY: CC50

Task: Need CC50 of NCCCC[C@@H]1NC(=O)[C@H](CCCNC(N)=O)NC(=O)[C@H](Cc2ccc(O)cc2)NC(=O)[C@@H](NC(=O)[C@H](Cc2ccc3ccccc3c2)NC(=O)[C@H](CCCN=C(N)N)NC(=O)[C@@H](N)CCCN=C(N)N)CSSC[C@@H](C(=O)N[C@@H](CCCN=C(N)N)C(=O)O)NC(=O)[C@H](CCCNC(N)=O)NC(=O)[C@H](CCCN=C(N)N)NC(=O)[C@H](Cc2ccc(O)cc2)NC(=O)[C@@H]2CCCN2C(=O)[C@@H](CCCCN)NC1=O [TC14003] (H-RR[2Nal]CY[Cit]K[dK]PYR[Cit]CR-OH; disulfide 4-13) , thanks.
Result: > 80 µM

Task: Which CC50 value is on record for C[C@@H]1NC(=O)[C@H](CCCN=C(N)N)NC(=O)[C@H](Cc2ccc(O)cc2)NC(=O)[C@@H](NC(=O)[C@H](Cc2ccc3ccccc3c2)NC(=O)[C@H](CCCN=C(N)N)NC(=O)[C@@H](N)CCCN=C(N)N)CSSC[C@@H](C(=O)N[C@@H](CCCN=C(N)N)C(=O)O)NC(=O)[C@H](CCCNC(N)=O)NC(=O)[C@H](CCCN=C(N)N)NC(=O)[C@H](Cc2ccc(O)cc2)NC(=O)[C@@H]2CCCN2C(=O)[C@@H](CCCCN)NC1=O [TA14006] (H-RR[2Nal]CYRA[dK]PYR[Cit]CR-OH; disulfide 4-13) ?
Result: > 80 µM

Task: Please give the measured CC50 for this compound: NCCCC[C@@H]1NC(=O)[C@H](CCCN=C(N)N)NC(=O)[C@H](Cc2ccc(O)cc2)NC(=O)[C@@H](NC(=O)[C@H](Cc2c[nH]c3ccccc23)NC(=O)[C@H](CCCN=C(N)N)NC(=O)[C@@H](N)CCCN=C(N)N)CSSC[C@@H](C(=O)N[C@@H](CCCN=C(N)N)C(=O)O)NC(=O)[C@H](CCCNC(N)=O)NC(=O)[C@H](CCCN=C(N)N)NC(=O)[C@H](Cc2ccc(O)cc2)NC(=O)[C@@H]2CCCN2C(=O)[C@@H](CCCCN)NC1=O [Compound T134, reference compound] (H-RRWCYRK[dK]PYR[Cit]CR-OH; disulfide 4-13)
Result: > 1 µM

Task: Consider the compound shown here: C[C@@H]1NC(=O)[C@H](Cc2ccc(O)cc2)NC(=O)[C@@H]2CCCN2C(=O)[C@@H](CCCCN)NC(=O)[C@H](CCCCN)NC(=O)[C@H](CCCNC(=N)N)NC(=O)[C@H](Cc2ccc(O)cc2)NC(=O)[C@@H](NC(=O)[C@H](Cc2ccc3ccccc3c2)NC(=O)[C@H](CCCNC(=N)N)NC(=O)[C@@H](N)CCCNC(=N)N)CSSC[C@@H](C(=O)N[C@@H](CCCNC(=N)N)C(=O)O)NC(=O)[C@H](CCCNC(N)=O)NC1=O [TA14010] (H-RR[2Nal]CYRK[dK]PYA[Cit]CR-OH; disulfide 4-13) What is its recorded CC50?
Result: > 80 µM

====

Exercise: for every item that follows, state its recorded CC50.
test: Cytotoxicity Test I: virus-uninfected MT-4 cells, MTT method; type: cell-based; conditions: human, MT-4 cells (virus-uninfected); virus-uninfected MT-4 cells, MTT method; read-out: CC50 (Test I), 50% survival concentration
Where a SMILES comes first, the peptide text is derived from it. Bridges are numbered along the chain shown (N, C = ends). [ ]: non-standard residue; d: D form. 2Nal = N[C@@H](Cc1ccc2ccccc2c1)C(=O)O; Cit = NC(=O)NCCC[C@H](N)C(=O)O

Task: Request the reported CC50 associated with NCCCC[C@@H]1NC(=O)[C@H](CCCN=C(N)N)NC(=O)[C@H](Cc2ccc(O)cc2)NC(=O)[C@@H](NC(=O)[C@H](Cc2ccc3ccccc3c2)NC(=O)[C@H](CCCN=C(N)N)NC(=O)[C@@H](N)CCCN=C(N)N)CSSC[C@@H](C(=O)N[C@@H](CCCN=C(N)N)C(=O)O)NC(=O)[C@H](CCCNC(N)=O)NC(=O)[C@H](CCCN=C(N)N)NC(=O)[C@H](Cc2ccc(O)cc2)NC(=O)[C@@H]2CCCN2C(=O)[C@@H](CCCCN)NC1=O [Compound T140, reference compound] (H-RR[2Nal]CYRK[dK]PYR[Cit]CR-OH; disulfide 4-13)
Result: > 1 µM

Task: Requested field: CC50. Item: N=C(N)NCCC[C@H](NC(=O)[C@@H]1CSSC[C@H](NC(=O)[C@H](Cc2ccc3ccccc3c2)NC(=O)[C@H](CCCNC(=N)N)NC(=O)[C@@H](N)CCCNC(=N)N)C(=O)N[C@@H](Cc2ccc(O)cc2)C(=O)N[C@@H](CCCNC(N)=O)C(=O)N[C@@H](CCCCN)C(=O)N[C@H](CCCNC(N)=O)C(=O)N2CCC[C@H]2C(=O)N[C@@H](Cc2ccc(O)cc2)C(=O)N[C@@H](CCCNC(=N)N)C(=O)N[C@@H](CCCNC(N)=O)C(=O)N1)C(N)=O
Result: > 100 µM

Task: Look up CC50 for this compound: C[C@@H]1NC(=O)[C@@H]2CCCN2C(=O)[C@@H](CCCCN)NC(=O)[C@H](CCCCN)NC(=O)[C@H](CCCN=C(N)N)NC(=O)[C@H](Cc2ccc(O)cc2)NC(=O)[C@@H](NC(=O)[C@H](Cc2ccc3ccccc3c2)NC(=O)[C@H](CCCN=C(N)N)NC(=O)[C@@H](N)CCCN=C(N)N)CSSC[C@@H](C(=O)N[C@@H](CCCN=C(N)N)C(=O)O)NC(=O)[C@H](CCCNC(N)=O)NC(=O)[C@H](CCCN=C(N)N)NC1=O [TA14009] (H-RR[2Nal]CYRK[dK]PAR[Cit]CR-OH; disulfide 4-13)
Result: > 80 µM

====

tested on: virus-uninfected MT-4 cells; assay: Cytotoxicity Test I: virus-uninfected MT-4 cells, MTT method; type: cell-based; conditions: selective index, MT-4 CC50 over anti-HIV EC50
Where a SMILES comes first, the peptide text is derived from it. Bridges are numbered along the chain shown (N, C = ends). [ ]: non-standard residue; d: D form. 2Nal = N[C@@H](Cc1ccc2ccccc2c1)C(=O)O; Cit = NC(=O)NCCC[C@H](N)C(=O)O
QUANTITY: SI: CC50 (Test I)/EC50

Task: Find SI: CC50 (Test I)/EC50 (virus-uninfected MT-4 cells) for the entry NCCCC[C@@H]1NC(=O)[C@H](CCCN=C(N)N)NC(=O)[C@H](Cc2ccc(O)cc2)NC(=O)[C@@H](NC(=O)[C@H](Cc2ccc3ccccc3c2)NC(=O)[C@H](CCCN=C(N)N)NC(=O)[C@@H](N)CCCN=C(N)N)CSSC[C@@H](C(=O)N[C@@H](CCCN=C(N)N)C(=O)O)NC(=O)[C@H](CCCNC(N)=O)NC(=O)[C@H](CCCNC(N)=O)NC(=O)[C@H](Cc2ccc(O)cc2)NC(=O)[C@@H]2CCCN2C(=O)[C@@H](CCCCN)NC1=O [TC14006] (H-RR[2Nal]CYRK[dK]PY[Cit][Cit]CR-OH; disulfide 4-13)
Result: >5300

Task: Record N=C(N)NCCC[C@H](NC(=O)[C@@H]1CSSC[C@H](NC(=O)[C@H](Cc2ccc3ccccc3c2)NC(=O)[C@H](CCCNC(=N)N)NC(=O)[C@@H](N)CCCNC(=N)N)C(=O)N[C@@H](Cc2ccc(O)cc2)C(=O)N[C@@H](CCCNC(=N)N)C(=O)N[C@@H](CCCCN)C(=O)N[C@H](CCCNC(N)=O)C(=O)N2CCC[C@H]2C(=O)N[C@@H](Cc2ccc(O)cc2)C(=O)N[C@@H](CCCNC(=N)N)C(=O)N[C@@H](CCCNC(N)=O)C(=O)N1)C(N)=O : what is its SI: CC50 (Test I)/EC50 with virus-uninfected MT-4 cells?
Result: >21000
